Where these numbers come from: patent US20200199204A1

Below, each of the binders is paired with its reported neutralization IC50 value.
# TARGET_UNDER_TEST: HIV-1 Env of THRO.18 (HIV-1)
# EXPERIMENT_NOTES: cell-based or functional assay
RESULT_TYPE: neutralization IC50

[[record]]
binder = "CAP256-VRC26.05 (antibody, V domains shown) VH: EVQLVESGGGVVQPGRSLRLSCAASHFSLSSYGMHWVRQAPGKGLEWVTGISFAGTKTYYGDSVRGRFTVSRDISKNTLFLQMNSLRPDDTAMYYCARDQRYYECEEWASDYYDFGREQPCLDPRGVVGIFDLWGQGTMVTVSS VL: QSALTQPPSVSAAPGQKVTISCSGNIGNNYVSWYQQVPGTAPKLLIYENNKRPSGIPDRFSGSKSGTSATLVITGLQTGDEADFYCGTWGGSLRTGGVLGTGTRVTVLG"
result = "> 50 µg/mL"

[[record]]
binder = "CAP256-VRC26.06 (antibody, V domains shown) VH: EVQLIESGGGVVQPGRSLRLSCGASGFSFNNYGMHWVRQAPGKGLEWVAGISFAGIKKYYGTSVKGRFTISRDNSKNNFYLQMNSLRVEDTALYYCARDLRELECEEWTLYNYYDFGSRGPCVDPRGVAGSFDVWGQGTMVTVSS VL: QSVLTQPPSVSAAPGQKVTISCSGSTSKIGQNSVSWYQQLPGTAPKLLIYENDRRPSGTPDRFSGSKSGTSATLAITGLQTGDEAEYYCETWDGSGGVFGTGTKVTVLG"
result = "4.25 µg/mL"

[[record]]
binder = "CAP256-VRC26.03 (antibody, V domains shown) VH: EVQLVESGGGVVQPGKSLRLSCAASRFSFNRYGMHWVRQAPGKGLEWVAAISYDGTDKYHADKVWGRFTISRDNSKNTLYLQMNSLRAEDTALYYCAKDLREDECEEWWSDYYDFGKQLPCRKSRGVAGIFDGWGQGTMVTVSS VL: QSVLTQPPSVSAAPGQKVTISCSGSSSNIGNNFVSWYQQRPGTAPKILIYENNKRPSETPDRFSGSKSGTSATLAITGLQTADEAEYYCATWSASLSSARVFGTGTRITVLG"
result = "> 50 µg/mL"

[[record]]
binder = "CAP256-VRC26.04 (antibody, V domains shown) VH: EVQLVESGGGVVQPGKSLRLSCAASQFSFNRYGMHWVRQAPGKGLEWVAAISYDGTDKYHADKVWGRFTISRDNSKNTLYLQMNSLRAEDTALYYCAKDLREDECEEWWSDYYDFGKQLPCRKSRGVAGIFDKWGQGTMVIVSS VL: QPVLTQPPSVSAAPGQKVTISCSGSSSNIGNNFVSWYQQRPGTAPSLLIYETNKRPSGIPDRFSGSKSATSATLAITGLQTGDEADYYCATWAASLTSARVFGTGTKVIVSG"
result = "> 50 µg/mL"

[[record]]
binder = "CAP256-VRC26.09 (antibody, V domains shown) VH: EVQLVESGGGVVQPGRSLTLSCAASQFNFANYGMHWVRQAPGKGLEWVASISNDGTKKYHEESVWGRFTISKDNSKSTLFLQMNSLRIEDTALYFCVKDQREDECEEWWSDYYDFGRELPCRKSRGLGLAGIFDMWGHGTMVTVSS VL: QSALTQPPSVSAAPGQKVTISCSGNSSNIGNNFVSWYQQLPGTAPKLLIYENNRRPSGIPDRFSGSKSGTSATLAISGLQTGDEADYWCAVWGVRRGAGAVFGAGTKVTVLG"
result = "> 50 µg/mL"

[[record]]
binder = "CAP256-VRC26.12 (antibody, V domains shown) VH: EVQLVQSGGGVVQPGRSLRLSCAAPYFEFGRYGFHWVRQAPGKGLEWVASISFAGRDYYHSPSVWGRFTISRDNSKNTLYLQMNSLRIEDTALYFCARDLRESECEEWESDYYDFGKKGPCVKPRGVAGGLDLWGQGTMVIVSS VL: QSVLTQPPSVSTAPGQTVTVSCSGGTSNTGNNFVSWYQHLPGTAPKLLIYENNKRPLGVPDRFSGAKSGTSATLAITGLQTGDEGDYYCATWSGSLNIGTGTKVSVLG"
result = "> 50 µg/mL"

